System: HIV-1 (NL4-3 strain)
Test: Assay for inhibition of HIV replication (VIKING) in infected MT4-GFP cells
Format: cell-based
Details: Human immunodeficiency virus 1, NL43, MT4-GFP cells infected with HIV-1 NL4-3; 0% NHS (normal human serum); infected cells at 48 h / 24 h; read-out: VIKING IP50 (nM) with 0% NHS
assay-readout: log10 of IC50 (log10 of the value in nM)

compound | test-target | log10 of IC50
O=C(NCc1ccc(F)cc1F)c1cn2c(c(O)c1=O)C(=O)N(CCO)CC21CCOC1 (centres unmarked) | HIV-1 (NL4-3 strain) | 1.54
CCOP(=O)(CCN1CC2(CCOC2)n2cc(C(=O)NCc3ccc(F)cc3F)c(=O)c(O)c2C1=O)OCC (centres unmarked) | HIV-1 (NL4-3 strain) | 1.23
COCCN1CC2(CCOC2)n2cc(C(=O)NCc3ccc(F)cc3F)c(=O)c(O)c2C1=O (centres unmarked) | HIV-1 (NL4-3 strain) | 0.30
COCCN1CC2(COC2)n2cc(C(=O)NCc3ccc(F)cc3F)c(=O)c(O)c2C1=O | HIV-1 (NL4-3 strain) | 0.48
CN1CC2(COC2)n2cc(C(=O)NCc3ccc(F)cc3F)c(=O)c(O)c2C1=O | HIV-1 (NL4-3 strain) | 0.30
COCCN1CC2(CCOCC2)n2cc(C(=O)NCc3ccc(F)cc3F)c(=O)c(O)c2C1=O | HIV-1 (NL4-3 strain) | 0.78
COCCN1CC2(CCOC2)n2cc(C(=O)NCc3ccc(F)c(Cl)c3F)c(=O)c(O)c2C1=O (centres unmarked) | HIV-1 (NL4-3 strain) | 0.00
CN(C)N1CC2(COC2)n2cc(C(=O)NCc3ccc(F)cc3F)c(=O)c(O)c2C1=O | HIV-1 (NL4-3 strain) | 0.60
